The values you see were collected from ChEMBL document CHEMBL4130528.

Parameter: IC50. Scope: all listed entries.
Tested on: MCF7
Test: Cytotoxicity against human MCF7 cells assessed as reduction in cell viability by cell titer 96 aqueous one solution based assay
Type: functional
Endpoint name: IC50 (µM)

> print(dat)
                                    compound  tested.system  bound.type  value.measured
 1     CCCCCCCCCCCCOc1ccc2[nH]cc(CCN)c2c1.Cl           MCF7           =             5.1
 2           CCCCCCCCCOc1cccc2c(CCN)c[nH]c12           MCF7           =              15
 3  NCCc1c[nH]c2ccc(OCc3cccc(COc4ccc5[nH]cc(CCN)c5c4)c3)cc12           MCF7           =              22
 4         CCCCCCCCCCCOc1ccc2[nH]cc(CCN)c2c1           MCF7           =             6.1
 5          NCCc1c[nH]c2ccccc12 [TRYPTAMINE]           MCF7           >              50
 6        CCCCCCCCCCCCOc1cccc2[nH]cc(CCN)c12           MCF7           =               5
 7  NCCc1c[nH]c2ccc(OCc3ccc(COc4ccc5[nH]cc(CCN)c5c4)cc3)cc12           MCF7           =              24
 8           CCCCCCCCCOc1ccc2[nH]cc(CCN)c2c1           MCF7           =             8.8
 9        CCCCCCCCCOc1cccc2[nH]cc(CCN)c12.Cl           MCF7           =             4.9
10          CCCCCCCCCCOc1ccc2[nH]cc(CCN)c2c1           MCF7           =               9
11        CCCCCCCCCCCCOc1cccc2c(CCN)c[nH]c12           MCF7           =             8.6
12           N#CCCCCCCOc1ccc2[nH]cc(CCN)c2c1           MCF7           >              50
13                CCCCOc1ccc2[nH]cc(CCN)c2c1           MCF7           =              45
14  CCCCC(CC)COc1ccc2[nH]cc(CCN)c2c1 (stereo not drawn)           MCF7           =              15
15         NCCc1c[nH]c2ccc(OCCCCCCCCCBr)cc12           MCF7           =              17
16    CCCCCCCCCCCCCCCCOc1ccc2[nH]cc(CCN)c2c1           MCF7           =              13
17      CCCCCCCCCCCCCCOc1ccc2[nH]cc(CCN)c2c1           MCF7           =             8.4
18            CCCCCCCCOc1ccc2[nH]cc(CCN)c2c1           MCF7           =              13
